Reference source for all entries: ChEMBL document CHEMBL1145936

Quick record of IC50 values for Aldo-keto reductase family 1 member B1 (Sus scrofa).
Measured Property: IC50 (µM)

These recorded examples may help you get a feel for the data.
- Molecule: "COc1ccc(CCNC(=O)CCCC(=O)O)cc1"
  IC50 (µM): 185
- Molecule: "O=C(O)/C=C/C(=O)NCCc1ccc(Br)cc1"
  IC50 (µM): 99
- Molecule: "O=C(O)CCCC(=O)NCCc1ccc(F)cc1"
  IC50 (µM): 76

a: O=C(O)CCC(=O)Nc1ccccc1
b: O=C(O)CCC(=O)NCCc1ccc(Cl)cc1
c: COc1ccc2c(C(=S)N(C)CC(=O)O)cccc2c1C(F)(F)F [TOLRESTAT]
INPUT: Task for the reader: rank each entry by its IC50, from the minimum upward. Dear reader, please state the labels in the requested order.
OUTPUT: c, b, a

a: O=C(O)CCCC(=O)NCCc1ccc(Cl)cc1
b: O=C(O)c1ccccc1C(=O)Nc1ccccc1
INPUT: Pick the one with the larger IC50: a vs b Refer to your chosen item by its label in the answer.
OUTPUT: b
(b: 227 µM, a: 154 µM)

a: CCCCCCCCCCCC(=O)NCCc1ccc(O)cc1
b: O=C(O)/C=C/C(=O)N1CCc2ccccc21
INPUT: Pick the one with the larger IC50: a vs b Refer to your chosen item by its label in the answer.
OUTPUT: a
